Experimental system: Glucocorticoid receptor (Homo sapiens)
Experimental details: qHTS assay for small molecule agonists of glucocorticoid receptor signaling (AID 588532);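 also: 100% = dexamethasone at 0.1 µM and 0% = DMSO only wells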
Test settings: HeLa MMTV-bla, beta-lactamase ratio, agonist, 18 h; stronger effect = higher value; percent of dexamethasone control, DMSO zero
Results filed as inconclusive are left out.
Recorded endpoint: activation (%)

[[record]]
given_smiles = "CC(=O)S[C@@H]1CC2=CC(=O)CC[C@]2(C)[C@H]2CC[C@@]3(C)[C@@H](CC[C@@]34CCC(=O)O4)[C@H]12"
recorded_endpoint = "activation"
result_units = "%"
value_observed = -13.6

[[record]]
given_smiles = "CCCCCCCCCC(=O)O"
recorded_endpoint = "activation"
result_units = "%"
value_observed = -0.446

[[record]]
given_smiles = "CN(C)Cc1ccccc1"
recorded_endpoint = "activation"
result_units = "%"
value_observed = -2.09

[[record]]
given_smiles = "COC(C)=O"
recorded_endpoint = "activation"
result_units = "%"
value_observed = -4.63


* * *

System: Tov-21-G
Experimental details: Primary qHTS to identify gynecologic anti-cancer compounds using libraries of approved drugs and bioactive compounds (AID 1345084); also: nearly all actives have a fitted effect of over 55% in size
Test settings: Gynecologic cancer cell panel viability, ATPlite luminescence, 48 h; series mostly up to 57.5 µM
Inconclusive results are not listed. The source made the active and inactive calls. Calls come from the whole dose curve; as a rule, active = well fitted cell-killing curve with a large enough effect; inconclusive = small, poorly fitted or top-dose-only effect, or effect the other way; inactive = flat fitted curve, though single readings scatter.
Outcomes: TRUE for active, FALSE for inactive

[[record]]
molecule = "C=C(COC(=O)C(O)C(O)CN)C12OC1C1(C)C(=CC2=O)C(O)C(O)CC1C (centres undefined)"
label_class = "FALSE"

[[record]]
molecule = "Cc1csc2c(N[C@@H](C)CN3CCN(S(=O)(=O)c4ccc(Cl)c(Cl)c4)CC3)ncnc12"
label_class = "FALSE"

[[record]]
molecule = "CC(C)n1c(=O)c(C(=O)NC2CC3CCC(C2)N3C[C@@H](O)CN(C)S(C)(=O)=O)cc2ccccc21 (some centres undefined)"
label_class = "FALSE"

[[record]]
molecule = "CC1(C)C2CCC(CO[C@@H]3O[C@H](CO[C@@H]4OC[C@](O)(CO)[C@H]4O)[C@@H](O)[C@H](O)[C@H]3O)C1C2 (some centres undefined)"
label_class = "FALSE"

[[record]]
molecule = "CCOC(=O)C1(CCOc2ccccc2)CCN(Cc2ccc(O)c(Cl)c2)CC1"
label_class = "FALSE"

[[record]]
molecule = "CC(C)c1ccc(NC(=O)Cn2cnc3c2c(=O)n(C)c(=O)n3C)cc1"
label_class = "FALSE"

[[record]]
molecule = "COC1CCN(C(=O)c2cc(Cc3n[nH]c(=O)c4ccccc34)ccc2F)CC1"
label_class = "FALSE"

[[record]]
molecule = "O=C1C(Cc2ccc(O)cc2)N2C(=O)CCN(C(=O)NCc3ccccc3)C2CN1Cc1cccc2ccccc12 (centres undefined)"
label_class = "TRUE"

[[record]]
molecule = "O=C1Nc2nc(-c3c(O)cccc3OCC3CC3)cc([C@@H]3CCCNC3)c2CO1"
label_class = "TRUE"


* * *

Tested on: HeLa
Experimental details: Primary qHTS to identify gynecologic anti-cancer compounds using libraries of approved drugs and bioactive compounds (AID 1345084); also: nearly all actives have a fitted effect of over 55% in size; as to activity change, negative = cytotoxicity: % is scaled to controls: 0 for no effect and ±100 for the full control effect
Test settings: Gynecologic cancer cell panel viability, ATPlite luminescence, 48 h; series mostly up to 57.5 µM
Description: National Center for Advancing Translational Sciences [NCATS] Assay Overview: Chemotherapeutic drug responses vary from cancer to cancer and from patient to patient. […] ATPlite is a luminescence based assay reliant on the conversion of a luciferase substrate to light in the presence of ATP. As a cytotoxic compound will suppress growth and decrease the number of cells, the concentration of ATP will decrease, and less light signal will be detected in the well. […]
Inconclusive results are not listed. Active and inactive are the calls of the source. Calls come from the whole dose curve; as a rule, active = well fitted cell-killing curve with a large enough effect; inconclusive = small, poorly fitted or top-dose-only effect, or effect the other way; inactive = flat fitted curve, though single readings scatter.
This section presents compounds with their documented activity change, negative = cytotoxicity values.
Recorded endpoint: activity change, negative = cytotoxicity

[[record]]
compound = "CC(=O)OC1CC(C)(C(=O)O)CC2C3=CC(=O)C4C5(C)CCC(OC6OC(C(=O)O)C(O)C(O)C6OC6OC(C(=O)O)C(O)C(O)C6O)C(C)(C)C5CCC4(C)C3(C)CCC12C (stereo not drawn)"
recorded_endpoint = "activity change, negative = cytotoxicity"
value_observed = "14.8% [at 11.6 µM] (inactive)"

[[record]]
compound = "CC(=O)O[C@H]1CC(C)(C)CC2[C@]13CO[C@@]21CCC2[C@@]4(C)CC[C@H](O[C@@H]5OC[C@H](O[C@@H]6O[C@H](CO)[C@@H](O)[C@H](O)[C@H]6O[C@@H]6OC[C@@H](O[C@@H]7O[C@H](CO)[C@@H](O)[C@H](O)[C@H]7O)[C@H](O)[C@H]6O)[C@H](O)[C@H]5O[C@@H]5O[C@H](CO)[C@@H](O)[C@H](O)[C@H]5O)[C@@](C)(CO)C4CC[C@@]2(C)[C@]1(C)C[C@H]3O (stereo partly drawn)"
recorded_endpoint = "activity change, negative = cytotoxicity"
value_observed = "-20% [at 6.55 µM] (inactive)"

[[record]]
compound = "N#CSc1cc(SC#N)c(N)nc1N"
recorded_endpoint = "activity change, negative = cytotoxicity"
value_observed = "-2.58% [at 11.6 µM] (inactive)"


* * *

Experimental details: Confirmatory screen NINDS Rhodamine qHTS for Zika virus inhibitors (AID 1347161); also: potency is read from the fitted curve at half-maximal effect; nearly all actives have a fitted effect of over 60% in size
Test settings: purified enzyme assay, Rhodamine110 substrate fluorescence, 15 min; series mostly up to 114 µM
Inconclusive results are not listed. Active and inactive are the calls of the source. Calls come from the whole dose curve; as a rule, active = well fitted inhibition curve with a large enough effect; inconclusive = small, poorly fitted or top-dose-only effect; inactive = no such curve, though single readings can be large or run the other way.
Parameter Potency: see the listing below.
Recorded endpoint: Potency

[[record]]
molecule = "CCCCCc1ccc(/C=C/C(=O)Nc2cc(Cl)ccc2C(=O)O)cc1"
recorded_endpoint = "Potency"
value_observed = "1.75 µM (active)"

[[record]]
molecule = "CC(C)C[C@H](C(=O)O)c1cc(-c2ccc(C(F)(F)F)cc2)cc(-c2ccc(C(F)(F)F)cc2)c1"
recorded_endpoint = "Potency"
value_observed = "3.5 µM (active)"

[[record]]
molecule = "CC(O)(C(=O)O)C1CCC2(C)C1CCC1(C)C2CCC2C3(C)CCC(O)C(C)(COC4OC(CO)C(O)C(O)C4O)C3CCC21C (stereo not drawn)"
recorded_endpoint = "Potency"
value_observed = "13.1 µM (active)"

[[record]]
molecule = "Cc1cc(OCCCS(C)(=O)=O)cc(C)c1-c1cccc(COc2ccc3c(c2)OCC3CC(=O)O)c1 (stereo not drawn)"
recorded_endpoint = "Potency"
value_observed = "7.84 µM (active)"

[[record]]
molecule = "Cc1noc(-c2ccc(-c3ccc(CC(=O)O)cc3)cc2)c1NC(=O)O[C@H](C)c1ccccc1Cl"
recorded_endpoint = "Potency"
value_observed = "4.94 µM (active)"

[[record]]
molecule = "CC#C[C@@H](CC(=O)O)c1ccc(OCc2ccc(CN3CCC4(C=Cc5ccccc54)CC3)s2)cc1"
recorded_endpoint = "Potency"
value_observed = "3.5 µM (active)"

[[record]]
molecule = "CCC(C)/C=C(C)/C=C/C1=CC2=CC(=O)C3(C)OC(C)(O)C(C(=O)OC)C3C2=CO1 (stereo not drawn)"
recorded_endpoint = "Potency"
value_observed = "21.5 µM (active)"

[[record]]
molecule = "CCCCCCCOc1cc2c(cc1/C(C)=C/c1ccc(C(=O)O)cc1)C(C)(C)CCS2(=O)=O"
recorded_endpoint = "Potency"
value_observed = "1.97 µM (active)"


* * *

Entries and their measured activity, negative = cell killing follow.
Experimental details: Drug repurposing screens with cells derived from glioblastoma tumor samples (AID 1345199); also: % is scaled to controls: 0 for no effect and ±100 for the full control effect; nearly all actives have a fitted effect of over 40% in size
Test settings: GBM patient neurospheres viability, ATP luminescence, 48 h; at 46 µM (top of the series); tumour line A
Records with an inconclusive call do not appear.
Recorded endpoint: activity, negative = cell killing (%)

[[record]]
compound = "Nc1c(CC(=O)O)cccc1C(=O)c1ccccc1"
value_observed = -11.4

[[record]]
compound = "O=P(O)(O)C(Sc1ccc(Cl)cc1)P(=O)(O)O"
value_observed = -1.1

[[record]]
compound = "O=C1C(c2[nH]c3ccc(S(=O)(=O)O)cc3c2O)=Nc2ccc(S(=O)(=O)O)cc21"
value_observed = -11.9

[[record]]
compound = "CCN(CC)CCOC(=O)c1ccc(N)cc1Cl"
value_observed = -27.9

[[record]]
compound = "C[C@H]1C[C@@H]2[C@H]([C@@H](O)C[C@@]3(C)[C@H]2CC[C@]3(O)C(=O)COC(=O)CCC(=O)O)[C@@]2(C)C=CC(=O)C=C12"
value_observed = -16.8

[[record]]
compound = "CC(=O)N[C@@H](C=O)[C@H](O)[C@H](O)[C@@H](O)CO"
value_observed = 1.93

[[record]]
compound = "CS(=O)(=O)Nc1cc2occ(NC=O)c(=O)c2cc1Oc1ccccc1"
value_observed = -16.3

[[record]]
compound = "O=C(OCCO)c1ccccc1O"
value_observed = -21.4

[[record]]
compound = "CCCC(CCC)C(N)=O"
value_observed = -16.5

[[record]]
compound = "C=Cc1ccccc1"
value_observed = -1.65

[[record]]
compound = "O=c1[nH]cnc2[nH]cc(CN3CCCCC3)c12"
value_observed = 2.77

[[record]]
compound = "CCC(=O)O"
value_observed = -7.77

[[record]]
compound = "CN1CC(O)c2cc(N=NC(N)=O)c(O)cc21 (centres undefined)"
value_observed = -26.7

[[record]]
compound = "CCN1CCCC1CNC(=O)c1cc(S(=O)(=O)CC)ccc1OC (centres undefined)"
value_observed = -20

[[record]]
compound = "C=C[C@]1(C)C[C@@H](OC(=O)CO)[C@]2(C)[C@H](C)CC[C@]3(CCC(=O)[C@H]32)[C@@H](C)[C@@H]1O"
value_observed = -29.8

[[record]]
compound = "NC(=O)C[C@@H](N)C(=O)O"
value_observed = 26.7

[[record]]
compound = "O=P(O)(O)OC(CO)CO"
value_observed = -6.76

[[record]]
compound = "CCCCCCCCCCCCCCCCCC(=O)[O][Al]"
value_observed = -12.4

[[record]]
compound = "CCCN(CC)C(CC)C(=O)Nc1c(C)cccc1C (centres undefined)"
value_observed = -28.6

[[record]]
compound = "C1CNCCN1"
value_observed = -15.8

[[record]]
compound = "COCC1=C(C(=O)OC(C)OC(=O)OC(C)C)N2C(=O)[C@@H](NC(=O)/C(=N\\OC)c3csc(N)n3)[C@H]2SC1 (some centres undefined)"
value_observed = -24.7

[[record]]
compound = "CCC(CN)CC(C)CCNCC(O)CNCC(C)CC(CC)CN (centres undefined)"
value_observed = -19.2

[[record]]
compound = "CCCCCC(O)/C=C/C=O (centres undefined)"
value_observed = -27.6

[[record]]
compound = "CO/N=C(\\C(=O)N[C@@H]1C(=O)N2C(C(=O)OCOC(=O)C(C)(C)C)=C(/C=C\\c3scnc3C)CS[C@H]12)c1csc(N)n1"
value_observed = -23.3

